B1: library; numbered along this chain (parent)
chain: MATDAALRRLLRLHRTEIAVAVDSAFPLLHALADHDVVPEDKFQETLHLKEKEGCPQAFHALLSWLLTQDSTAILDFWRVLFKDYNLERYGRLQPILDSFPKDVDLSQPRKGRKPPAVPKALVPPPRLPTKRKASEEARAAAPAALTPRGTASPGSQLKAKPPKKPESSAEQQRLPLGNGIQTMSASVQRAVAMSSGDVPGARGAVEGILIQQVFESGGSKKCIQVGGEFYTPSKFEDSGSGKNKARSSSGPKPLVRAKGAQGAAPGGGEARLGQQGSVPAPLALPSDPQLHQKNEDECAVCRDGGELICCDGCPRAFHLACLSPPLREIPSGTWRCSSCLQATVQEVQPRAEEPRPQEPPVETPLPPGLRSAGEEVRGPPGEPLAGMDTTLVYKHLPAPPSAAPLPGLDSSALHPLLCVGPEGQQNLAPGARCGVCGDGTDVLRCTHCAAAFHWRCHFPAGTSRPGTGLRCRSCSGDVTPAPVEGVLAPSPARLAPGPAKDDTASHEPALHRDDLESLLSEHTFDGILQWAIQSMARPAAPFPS

variants of: B1; experiment: AIRE transcriptional activation functional score (insulin promoter-GFP; nonsense median 0, synonymous median 1) (normalised score); higher = higher AIRE activity (more reporter activation); conditions: with insulin promoter-GFP reporter in HEK293
Exercise: state measured AIRE transcriptional activation functional score for each of the variants provided.
Numbers only.

Consider the reported AIRE transcriptional activation functional score for these variants:
INSERT INTO measurements (variant_designation, assay_value) VALUES
  ('P163V', 0.445),
  ('V377W', 1.82),
  ('L283E', 0.987),
  ('F318W', 0.907),
  ('K133I', -0.178);

Look at each variant and report its AIRE transcriptional activation functional score.
1. C223T
2. R110Q

Reply text:
1. 1.15
2. 0.31

Go through the items and report each one's AIRE transcriptional activation functional score.
1. D76F
2. S372R
3. P126D
4. T232P
5. A537G
6. G333A

Reply text:
1: -0.202; 2: 1.16; 3: 0.773; 4: 0.894; 5: 0.792; 6: 0.871

Provide the reported AIRE transcriptional activation functional score of each entry below, same order.
1. A300V
2. A451H
3. G333S
4. C314R
5. V188D
6. K501P
7. P466D
8. A496H

Reply text:
1. 1.09
2. 0.282
3. 0.365
4. 0.842
5. 0.779
6. 0.836
7. 0.553
8. 1.29

Go through the list and state AIRE transcriptional activation functional score for each entry.
1. L122E
2. S518L
3. A264Q
4. S518P
5. K501H

Reply text:
0.827
1.04
0.566
0.384
0.51
